# System under test: T1, human CD3 expressed on cells (Jurkat, a CD3+ human T-cell line; human T cells) (human, UniProt P07766 23-126; P04234 22-100)
# T1 chain 1: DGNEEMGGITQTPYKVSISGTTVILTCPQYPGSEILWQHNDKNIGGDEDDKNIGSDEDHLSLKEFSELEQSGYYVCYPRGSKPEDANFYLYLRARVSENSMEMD
# T1 chain 2: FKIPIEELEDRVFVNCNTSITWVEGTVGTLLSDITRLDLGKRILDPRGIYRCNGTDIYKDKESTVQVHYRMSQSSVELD
# Test name: cell-based or functional assay
# Lookup of reported U937 Cytotoxicity Human T-cells [M] (EC50) keyed by entry
Parameter: U937 Cytotoxicity Human T-cells [M] (EC50) (M)

Binder: H2M3543N (antibody, mouse IgG2, V domains shown) VH: EVQLVESGGGLVQPGRSLRLSCAASGFTFDDYTMHWVRQAPGKGLEWVSDISWNSGSIGYADSVKGRFTVSRDNAKNSLYLQMNSLRGEDTALYYCAKDMSGYAHYGYYGMDVWGQGTTVTVSS VL: DIQMTQSPSSLSASVGDRVTITCRASQSIRNYLNWYQQKPGKVPKLLIYAASSLQSGVPSRFSGSGSGTDFTLTISSLQPEDFATYYCQQSYSNPPITFGQGTRLEIK
Readout number: 1.31e-11
//
Binder: H2M2709N (antibody, mouse IgG2, V domains shown, mouse IgG2 Fc (H2M), human variable regions) VH: QVQLVESGGGVVQPGRSLRLSCAASGFTFRSFGMHWVRQAPGRGLEWVAMIYFDGKNKYYADSVRGRFTISRDNSKNTLYLEMSSLRAEDTAVYFCARGPGYNWLDPWGQGTLVTVSS VL: EIVMTQSPATLSVSPGERVTLSCRASQSISRNLAWYQQKPGQAPRLLIYGASTRATGVPARFSGSGSGTEFTLTISSLQSEDFAVFHCQQYNNRPLTFGGGTEVEIK
Readout number: 3.47e-12
//
Binder: H2M2690N (antibody, mouse IgG2, V domains shown) VH: EVQLVESGGGLVQPGRSLRLSCAASGFTFDDYTMHWVRQAPGKGLEWVSGISWNSGSIGYADSVKGRFTISRDNAKKSLYLQMNSLRAEDTALYYCAKDNSGYGHYYYGMDVWGQGTTVTVAS VL: EIVMTQSPATLSVSPGERATLSCRASQSVSSNLAWYQQKPGQAPRLLIYGASTRATGIPARFSGSGSGTEFTLTISSLQSEDFAVYYCQHYINWPLTFGGGTKVEIK
Readout number: 2.79e-11
//
Binder: H1M2712N (antibody, mouse IgG1, V domains shown) VH: EVQLVESGGGLVQPGGSLRLSCAATGFTFDDFTMHWVRQAPGKGLEWVSGISWNSGSIGYVDSVKGRFTISRDNAKNSLYLQMNSLRAEDTALYYCAKDNSGYGYYYYGMDVWGQGTTVTVSS VL: EIVMTQSPATLSVSPGERATLSCRASHSVSRNSAWYQQKPGQAPRLLIYGASTRATGIPARFSGSGSGTEFTLTISSLQSEDFAIYYCQQYNNWPLTFGGGTKVEIK
Readout number: 3.14e-10
//
Binder: H2M2774N (antibody, mouse IgG2, V domains shown) VH: QVQLVESGGGVVQPGRSLRLSCVASGFTFRSYGMHWVRQAPGKGLQWVAMIYYDGKNKYYADSVRGRFTISRDNSKNTLYLQMNSLRAEDTAMYFCARGPGYNWLDPWGQGTLVTVSS VL: EIVMTQSPATLSVSPGERATLSCRASQRISSNLAWYQQKPGQAPRLLIYGASTRATGSPARFSGSGSGTEFTLTISSLQSEDVAVYYCQQHNNWPLTFGGGTKVEIK
Readout number: 2.46e-12
//
Binder: H2M2706N (antibody, mouse IgG2, V domains shown) VH: QVQLVESGGGVVQPGRSLRLSCAASGFTFRSYAMHWVRQAPGKGLEWVAMVYYDGNNQYYADSVRGRFTISRDNSKNTLYLQMNSLRADDTAVYFCARGPGYNWLDPWGQGTLVTVSS VL: EIVMTQSPATLSVSPGERATLSCRASQSVSRNLAWYQQKPGQAPRLLIYGASTRATGIPARFSGSGSGTDFTLTISSLQSEDFAVYYCQQYNNWPLTFGGGTKVVIK
Readout number: 7.91e-12
//
Binder: H2M2691N (antibody, mouse IgG2, V domains shown) VH: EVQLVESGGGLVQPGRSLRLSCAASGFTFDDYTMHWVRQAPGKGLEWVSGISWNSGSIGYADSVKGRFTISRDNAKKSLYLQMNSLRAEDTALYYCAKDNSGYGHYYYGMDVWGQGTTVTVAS VL: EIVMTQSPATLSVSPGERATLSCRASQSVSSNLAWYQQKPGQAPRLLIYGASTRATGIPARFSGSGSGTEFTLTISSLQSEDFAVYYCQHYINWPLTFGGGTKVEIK
Readout number: 2.34e-11
//
Binder: H2M2710N (antibody, V domains shown) VH: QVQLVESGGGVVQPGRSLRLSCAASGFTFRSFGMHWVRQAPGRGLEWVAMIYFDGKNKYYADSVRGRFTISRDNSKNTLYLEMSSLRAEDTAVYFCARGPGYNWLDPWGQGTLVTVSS VL: EIVMTQSPATLSVSPGERATLSCRASQSVSRNLAWYQQKPGQAPRLLIYGASTRATGVPARFSGSGSGTEFTLTISSLQSEDFAVFHCQQYNNRPLTFGGGTEVEIK
Readout number: 3.97e-12
//
Binder: H1M2692N (antibody, mouse IgG1, V domains shown) VH: EVQLVESGGGLVQPGGSLRLSCAASGFSFDDYTMHWVRQPPGKGLEWVSGISWNSGSIGYADSVKGRFTISRDNAKNSLYLQMNSLRAGDTALYYCAKDNSGYGYYYYYGMDVWGQGTTVTVSS VL: EIVMTQSPATLSVSPGERATLSCRASQSVSSNLAWYQQKPGQAPRLLIYGASTRATGIPARFSGSGSGTEFTLTISSLQSEDFAVYYCQQYYNWPLTFGGGTKVEIK
Readout number: 3.59e-10
//
Binder: H2M3563N (antibody, mouse IgG2, V domains shown) VH: EVHLVESGGGLVQPGRSLRLSCAASGFTFDDYTMHWVRQAPGKGLEWVSDISWNSGSIGYADSVKGRFTVSRDNAKNSLYLQMNSLRGEDTALYYCAKDMSGYGHYGKYGMDVWGQGTTVTVSS VL: DIQMTQSPSSLSASVGDRVTITCRASQSIRSYLNWYQQKPGKVPKLLIYAASSLQSGVPSRFSGSGSGTDFTLTINSLQPDDFATYYCQQTYSNPPITFGQGTRLEIK
Readout number: 4.05e-11
